Data credit: ChEMBL document CHEMBL5356977

- ASSAY PROTOCOL: Proteolytic stability in mouse serum assessed as half life
- Format: ADME, cell-free
Bridge positions count the residues as written; N and C are the ends. Square brackets hold non-standard residues; d marks the D form. Peptide text beside a SMILES is read from it. NMeF = CN[C@@H](Cc1ccccc1)C(=O)O
RESULT TYPE: half-life

query: Given the entry CC(C)C[C@@H]1NC(=O)[C@H](Cc2ccc(O)cc2)NC(=O)[C@H](Cc2ccccc2)NC(=O)CSC[C@@H](C(=O)NCC(N)=O)NC(=O)[C@H](CC(C)C)NC(=O)[C@H](Cc2ccccc2)N(C)C(=O)[C@H](Cc2ccc(O)cc2)NC(=O)[C@H](Cc2c[nH]c3ccccc23)NC(=O)CNC(=O)[C@H](CO)NC(=O)[C@H](Cc2ccc(O)cc2)NC(=O)[C@H](C(C)C)NC1=O ({CH2CO}-FYLVYSGWY[NMeF]LCG-NH2; thioether N-12) , report its measured half-life.
result: > 24 h
